system: HeLa; test: Cytotoxicity against human HeLa cells; format: functional, cell-based
Would you kindly list pIC50 for each of these compounds?
When answering, recall that pIC50 equals minus log10 of the concentration in mol/L, and write that number alone.

Ask: Data request, read-out pIC50, for COc1ccc(/C=C\c2cc(OC)c(OC)c(OC)c2)cc1O [COMBRETASTATIN A4]
Result: 8.56

Ask: Data request, read-out pIC50, for COc1ccc(-c2cnoc2-c2cc(OC)c(OC)c(OC)c2)cc1N
Result: 10.66
